- Tested on: HOP-92
- Assay overview: Growth inhibition of human HOP92 cells at 10 uM after 48 hrs by SRB assay
- Type: functional
- Test conditions: HOP-92, 48 h, read-out: GI
Collected inhibition of growth at 10 µM values appear next to each entry.
# unit: % | format: bare number

I would be grateful if you could share the reported inhibition of growth at 10 µM for O=c1[nH]cc(F)c(=O)[nH]1 .
50.6

I would be grateful if you could share the reported inhibition of growth at 10 µM for O=c1c2cccc3c(NC4CCCCC4)ccc(c32)c2nc3ccccc3n12 .
51.5

I would be grateful if you could share the reported inhibition of growth at 10 µM for O=c1c2cccc3c(N4CCOCC4)ccc(c32)c2nc3ccccc3n12 .
40.8

Continuing:
I would be grateful if you could share the reported inhibition of growth at 10 µM for O=c1c2cccc3c(NCCO)ccc(c32)c2nc3ccccc3n12 .
40
